assay: Pharmacokinetic experiment, single intragastric administration, plasma by HPLC-UV; format: in vivo, SD rats; conditions: SD (Sprague-Dawley), rat, plasma, po, plasma, Group C (CUR 200 mg kg^−1 and ILE 150 mg kg^−1 oral), 60 min; read-out: Mean concentrations ±sd, DHC
Experimental endpoint: concentration at 60 min (ng/mL)
Answer in ng/mL, number only, no unit symbol.

In: Form field: reported concentration at 60 min of COc1cc(/C=C/C(=O)CC(=O)CCc2ccc(O)c(OC)c2)ccc1O [DHC, Dihydrocurcumin]
Out: 4800

====

assay: Pharmacokinetic experiment, single intragastric administration, plasma by HPLC-UV; assay type: in vivo, SD rats; details: SD (Sprague-Dawley), rat, plasma, po, plasma, Group C (CUR 200 mg kg^−1 and ILE 150 mg kg^−1 oral), 40 min; read-out: Mean concentrations ±sd, DHC
Experimental endpoint: concentration at 40 min

In: Give its concentration at 40 min value. Item: COc1cc(/C=C/C(=O)CC(=O)CCc2ccc(O)c(OC)c2)ccc1O [DHC, Dihydrocurcumin]
Out: 6300 ng/mL
